Biological target: Vascular endothelial growth factor receptor 2 (Homo sapiens)
Sequence (P35968 whole entry, the tested form may be a part): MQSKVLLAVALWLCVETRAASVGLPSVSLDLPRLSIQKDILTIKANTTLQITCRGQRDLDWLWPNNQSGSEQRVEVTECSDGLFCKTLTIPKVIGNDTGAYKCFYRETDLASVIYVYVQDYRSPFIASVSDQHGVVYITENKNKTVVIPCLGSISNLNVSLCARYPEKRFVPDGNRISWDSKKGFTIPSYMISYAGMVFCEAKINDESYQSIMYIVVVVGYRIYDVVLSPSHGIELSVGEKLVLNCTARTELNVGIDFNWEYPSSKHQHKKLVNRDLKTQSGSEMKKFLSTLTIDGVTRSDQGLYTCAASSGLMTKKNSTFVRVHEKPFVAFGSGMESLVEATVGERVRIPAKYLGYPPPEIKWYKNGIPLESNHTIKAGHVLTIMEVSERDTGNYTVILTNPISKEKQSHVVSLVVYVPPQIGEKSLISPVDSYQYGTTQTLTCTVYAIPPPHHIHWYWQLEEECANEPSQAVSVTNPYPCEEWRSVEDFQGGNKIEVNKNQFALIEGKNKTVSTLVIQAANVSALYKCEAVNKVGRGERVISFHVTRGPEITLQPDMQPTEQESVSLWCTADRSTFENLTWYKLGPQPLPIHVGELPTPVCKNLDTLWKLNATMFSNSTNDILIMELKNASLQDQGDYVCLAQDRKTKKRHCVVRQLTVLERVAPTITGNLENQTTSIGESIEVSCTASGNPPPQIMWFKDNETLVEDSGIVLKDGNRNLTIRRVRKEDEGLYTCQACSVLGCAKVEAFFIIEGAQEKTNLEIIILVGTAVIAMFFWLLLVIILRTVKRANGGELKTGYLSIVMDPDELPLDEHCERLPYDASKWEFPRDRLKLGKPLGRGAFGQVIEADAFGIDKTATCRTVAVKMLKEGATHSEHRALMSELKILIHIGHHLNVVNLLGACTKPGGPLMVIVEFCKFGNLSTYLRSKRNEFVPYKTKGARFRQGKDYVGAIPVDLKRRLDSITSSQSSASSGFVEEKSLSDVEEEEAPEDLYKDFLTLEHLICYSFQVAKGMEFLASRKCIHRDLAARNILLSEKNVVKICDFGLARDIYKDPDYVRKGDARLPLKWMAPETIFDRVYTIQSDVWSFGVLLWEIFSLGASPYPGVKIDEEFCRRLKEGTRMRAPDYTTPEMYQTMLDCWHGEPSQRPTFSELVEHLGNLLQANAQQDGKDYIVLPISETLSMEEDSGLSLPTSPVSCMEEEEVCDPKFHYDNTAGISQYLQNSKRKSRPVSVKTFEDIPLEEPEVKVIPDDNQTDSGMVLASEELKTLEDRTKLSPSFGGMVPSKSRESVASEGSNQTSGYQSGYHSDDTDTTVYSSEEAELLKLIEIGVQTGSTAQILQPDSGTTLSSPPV
Assay: Inhibition of recombinant human N-terminal GST-fused KDR (D807 to V1356 residues) expressed in baculovirus infected […] insect Sf9 cells using poly-EY as substrate after 240 mins by luciferase coupled chemiluminescence assay
Below, each of the molecules is paired with its reported IC50 value.

# count of solved cases: 2
**Q:** What value of IC50 has been reported for the following molecule? COc1cc2c(Nc3ccc(Cl)c(Cl)c3)ncnc2cc1OCC1CN(CC(N)=O)CCO1 (stereo not drawn)
**A:** 50 to 1000 nM

**Q:** Look up IC50 for this molecule: COc1cc2c(Nc3ccc(Cl)c(Cl)c3)ncnc2cc1OCc1csc(N2CCN(C)CC2)n1
**A:** 50 to 1000 nM

Moving on to the next molecule.
**Q:** Would you mind telling me what IC50 value was observed for COc1cc2c(Nc3ccc(Br)c(Cl)c3F)ncnc2cc1OC[C@@H]1CN2CCOC[C@H]2CO1 ?
**A:** < 50 nM

* * *

Target: Ephrin type-B receptor 4 (Homo sapiens)
Sequence (P54760 whole entry): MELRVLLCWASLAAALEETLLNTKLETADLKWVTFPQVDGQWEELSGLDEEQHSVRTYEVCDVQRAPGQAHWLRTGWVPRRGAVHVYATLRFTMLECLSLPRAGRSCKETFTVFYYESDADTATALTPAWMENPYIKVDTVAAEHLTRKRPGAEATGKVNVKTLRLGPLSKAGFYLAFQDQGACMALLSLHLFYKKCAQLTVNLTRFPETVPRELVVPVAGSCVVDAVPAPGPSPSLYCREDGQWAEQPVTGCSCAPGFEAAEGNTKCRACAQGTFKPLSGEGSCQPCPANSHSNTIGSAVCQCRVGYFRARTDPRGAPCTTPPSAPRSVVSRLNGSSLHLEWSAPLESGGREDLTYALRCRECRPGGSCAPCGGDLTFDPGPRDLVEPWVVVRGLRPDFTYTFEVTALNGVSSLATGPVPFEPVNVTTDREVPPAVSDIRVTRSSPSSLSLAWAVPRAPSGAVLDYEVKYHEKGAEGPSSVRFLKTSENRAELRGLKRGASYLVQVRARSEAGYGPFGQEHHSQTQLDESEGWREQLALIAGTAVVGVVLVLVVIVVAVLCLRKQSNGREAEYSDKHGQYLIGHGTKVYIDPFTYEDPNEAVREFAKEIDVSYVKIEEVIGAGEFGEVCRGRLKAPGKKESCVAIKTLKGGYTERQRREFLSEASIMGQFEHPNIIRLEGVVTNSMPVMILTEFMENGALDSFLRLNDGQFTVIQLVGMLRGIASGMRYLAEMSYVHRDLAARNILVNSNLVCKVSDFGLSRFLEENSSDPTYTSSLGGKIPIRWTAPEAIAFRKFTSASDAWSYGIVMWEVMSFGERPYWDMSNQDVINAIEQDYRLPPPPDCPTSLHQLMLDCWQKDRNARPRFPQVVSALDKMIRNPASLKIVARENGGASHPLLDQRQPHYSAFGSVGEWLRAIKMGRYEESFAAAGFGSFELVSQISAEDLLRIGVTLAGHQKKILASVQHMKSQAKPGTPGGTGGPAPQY
Assay: Inhibition of recombinant human N-terminal His6-tagged EphB4 kinase domain (E605 to E890 residues) expressed in baculovirus using poly-AEKY as substrate after 150 mins in presence of gamma33P-ATP by liquid scintillation spectrometry
Catalogue of IC50 values

**Q:** Which IC50 value belongs to COc1cc2c(Nc3cccc(Cl)c3F)ncnc2cc1OCC1CN(C)CCO1 (stereo not drawn) ?
**A:** 50 to 1000 nM

**Q:** Quick check: IC50 of C=CCCCN1CCOC(COc2cc3ncnc(Nc4ccc(Cl)c(Cl)c4)c3cc2OC)C1 (stereo not drawn) ?
**A:** < 50 nM

Continuing:
**Q:** Which measured IC50 value corresponds to COc1cc2c(Nc3ccc(Cl)c(Cl)c3)ncnc2cc1OC[C@H]1CN2CCC[C@H]2CO1 ?
**A:** < 50 nM

Values from ChEMBL document CHEMBL3882729
